Parameter TR_FRET EKI G101V/WT selectivty ratio: see the listing below.
# Test system: BCL2 G101V
# METHOD NOTES: TR-FRET competitive binding assay, BCL2 G101V
# Set-up: species or system human
# TEST CONTEXT: ratio Ki BCL2 G101V / Ki BCL2 WT

Cc1c(N(C(=O)c2cc(-c3cc4c(cc3C(=O)N3Cc5ccccc5C[C@H]3C)CN(C(=O)Cc3ccccc3C#N)CC4)n(C)c2C)c2ccc(O)cc2)cc(C#N)n1C ... 7.7
Cc1c(N(C(=O)c2cc(-c3cc4c(cc3C(=O)N3Cc5ccccc5C[C@H]3CN3CCCCC3)CN(C(=O)Cc3ccc(Cl)cc3F)CC4)n(C)c2C)c2ccc(O)cc2)cc(C#N)n1C ... 8.5

Tested system BCL2 G101V; TR_FRET EKI G101V/WT selectivty ratio recorded for `Cc1c(N(C(=O)c2cc(-c3cc4c(cc3C(=O)N3Cc5ccccc5C[C@H]3CN3CCC(C)CC3)CN(C(=O)Cc3ccc(OCCN5CCOCC5)cc3F)CC4)n(C)c2C)c2ccc(O)cc2)cc(C#N)n1C` was 5.1

Short answer on BCL2 G101V for `Cc1c(N(C(=O)c2cc(-c3cc4c(cc3C(=O)N3Cc5ccccc5C[C@H]3CN3CCCCC3)CN(C(=O)Cc3ccc(OCCN5CCOCC5)cc3F)CC4)n(C)c2C)c2ccccc2)cc(C#N)n1C` , TR_FRET EKI G101V/WT selectivty ratio: 30.7

Item `COCC(=O)N1CCc2cc(-c3cc(C(=O)N(c4ccccc4)c4cc(C#N)n(C)c4C)c(C)n3C)c(C(=O)N3Cc4ccccc4C[C@H]3CN3CCCCC3)cc2C1` was tested on BCL2 G101V; the reported TR_FRET EKI G101V/WT selectivty ratio is 92.0

The recorded TR_FRET EKI G101V/WT selectivty ratio with BCL2 G101V for `Cc1c(C(=O)N(c2ccccc2)c2cnn(C)c2)cc(-c2cc3c(cc2C(=O)N2Cc4ccccc4C[C@H]2C)CN(C(=O)Cc2cccc(C4CCN(C)CC4)c2)CC3)n1C` was 125.5

###

Attribute: TR_FRET EKI G101V/WT selectivty ratio
# System: BCL2 G101V
# METHOD NOTES: TR-FRET competitive binding assay, BCL2 G101V
# Set-up: species or system human
# TEST CONTEXT: ratio Ki BCL2 G101V / Ki BCL2 WT

These recorded examples may help you get a feel for the data.
Cc1c(C(=O)N(c2ccc(O)cc2)c2cc(C#N)n(C(F)F)c2C)cc(-c2cc3c(cc2C(=O)N2Cc4ccccc4C[C@H]2CN2CCCCC2)CN(C(=O)Cc2ccc(OCCN4C[C@@H](C)O[C@@H](C)C4)cc2)CC3)n1C ... 5.5
Cc1c(C(=O)N(c2ccccc2)c2cnn(C(F)F)c2)cc(-c2cc3c(cc2C(=O)N2Cc4ccccc4C[C@H]2C)CN(C(=O)Cc2ccc(OCCN4CCOCC4)cc2)CC3)n1C ... 73.4

Next up:
Quick note, TR_FRET EKI G101V/WT selectivty ratio for `Cc1c(N(C(=O)c2cc(-c3cc4c(cc3C(=O)N3Cc5ccccc5C[C@H]3C)CN(C(=O)Cc3ccc(OCCN5CCC(F)(F)C5)cc3)CC4)n(C)c2C)c2ccc(O)cc2)cc(C#N)n1C` landed at 2.3

###

# TESTED SYSTEM: BCL2 D103Y (Homo sapiens, UniProt P10415, D103Y)
# METHOD NOTES: TR-FRET competitive binding assay, BCL2 D103Y
# TEST CONTEXT: Ki determined from IC50, read-out: TR_FRET EKI_Bcl2 D103Y
ENDPOINT NAME: pKi
Just so you know, pKi here is -log10 of the concentration in molar units; reply with that number alone.

Some solved cases for reference:
Cc1c(C(=O)N(c2ccccc2)c2cnn(C(F)F)c2)cc(-c2cc3c(cc2C(=O)N2Cc4ccccc4C[C@H]2C)CN(C(=O)Cc2ccc(OCCN4CCOCC4)cc2F)CC3)n1C ... 10.00
Cc1nn(C)cc1N(C(=O)c1cc(-c2cc3c(cc2C(=O)N2Cc4ccccc4C[C@H]2C)CN(C(=O)Cc2ccc(OCCN4CCOCC4)cc2F)CC3)n(C)c1C)c1ccccc1 ... 10.10
Cc1c(N(C(=O)c2cc(-c3cc4c(cc3C(=O)N3Cc5ccccc5C[C@H]3C)CN(C(=O)Cc3ccc(OCCN(C)C5CC5)nc3)CC4)n(C)c2C)c2ccc(O)cc2)cc(C#N)n1C ... 9.89

For record `Cc1c(N(C(=O)c2cc(-c3cc4c(cc3C(=O)N3Cc5ccccc5C[C@H]3CN3CCC(F)CC3)CN(C(=O)Cc3ccc(OCCN5CCOCC5)cc3F)CC4)n(C)c2C)c2ccc(O)cc2)cc(C#N)n1C` the listed pKi is 9.38

pKi for `Cc1c(N(C(=O)c2cc(-c3cc4c(cc3C(=O)N3Cc5ccccc5C[C@H]3C)CN(C(=O)Cc3ccc(OCCN5CCN6CCOC[C@@H]6C5)cc3)CC4)n(C)c2C)c2ccc(O)cc2)cc(C#N)n1C` is 9.48

###

Collected Platelet loss (%) 24 h values appear next to each entry.
# Tested on: platelets
# METHOD NOTES: Platelet depletion in SCID mice
# Format: in vivo
# TEST CONTEXT: 25 mg/kg IV bolus, 24 h after dosing, vs control group
# number only, unit % dropped from output

Answered cases to consult:
Cc1c(N(C(=O)c2cc(-c3cc4c(cc3C(=O)N3Cc5ccccc5C[C@H]3C)CN(C(=O)Cc3ccc(OCCN5CCOCC5)cc3)CC4)n(C)c2C)c2ccc(O)cc2)cc(C#N)n1C [Example 21] ... 30.3
Cc1c(N(C(=O)c2cc(-c3cc4c(cc3C(=O)N3Cc5ccccc5C[C@H]3CN3CCCCC3)CN(C(=O)Cc3ccc(OCCC5CCOCC5)cc3F)CC4)n(C)c2C)c2ccc(O)cc2)cc(C#N)n1C [Example 34] ... 18.2
COC[C@@H]1Cc2ccccc2CN1C(=O)c1cc2c(cc1-c1cc(C(=O)N(c3ccc(O)cc3)c3cc(C#N)n(C)c3C)c(C)n1C)CCN(C(=O)Cc1ccc(OCCC3CCOCC3)cc1F)C2 [Example 52] ... 33.0
COc1ccc(CC(=O)N2CCc3cc(-c4cc(C(=O)N(c5ccc(O)cc5)c5cc(C#N)n(C)c5C)c(C)n4C)c(C(=O)N4Cc5ccccc5C[C@H]4CN4CCCCC4)cc3C2)c(F)c1 [Example 33] ... 22.5
Cc1c(N(C(=O)c2cc(-c3cc4c(cc3C(=O)N3Cc5ccccc5C[C@H]3C)CN(C(=O)Cc3ccc(OCCN5CCO[C@H](C)C5)cc3)CC4)n(C)c2C)c2ccc(O)cc2)cc(C#N)n1C [Example 56] ... 26.9

Proceeding to the next compound to report its Platelet loss (%) 24 h.
# Platelet loss (%) 24 h of Cc1c(N(C(=O)c2cc(-c3cc4c(cc3C(=O)N3Cc5ccccc5C[C@H]3CN3CCCCC3)CN(C(=O)Cc3ccc(OCCN5CCOCC5)cc3F)CC4)n(C)c2C)c2ccc(O)cc2)cc(C#N)n1C [Example 43] = 9.2

###

# TESTED SYSTEM: BCLXL WT (Homo sapiens (Human))
# METHOD NOTES: TR-FRET competitive binding assay, BCLXL WT
# TEST CONTEXT: ratio of Ki BCLxL to BCL2 WT
# label = Fulfilled if TR_FRET EKI BCLxL/WT selectivty >= 50 else Not fulfilled

Sample answers from the record:
Cc1c(N(C(=O)c2cc(-c3cc4c(cc3C(=O)N3Cc5ccccc5C[C@H]3CN3CCCCC3)CN(C(=O)Cc3ccc(OCCN5CCOCC5)cc3F)CC4)n(C)c2C)c2ccc(O)cc2)cc(C#N)n1C ... Not fulfilled
Cc1c(N(C(=O)c2cc(-c3cc4c(cc3C(=O)N3Cc5ccccc5C[C@H]3C)CN(C(=O)Cc3ccc(OCCN5CCOCC5)cc3)CC4)n(C)c2C)c2ccccc2)cc(C#N)n1C ... Fulfilled
Cc1c(C(=O)N(c2ccccc2)c2cnn(C)c2)cc(-c2cc3c(cc2C(=O)N2Cc4ccccc4C[C@H]2C)CN(C(=O)Cc2ccc(OCCN(C)C)cc2F)CC3)n1C ... Fulfilled
Cc1c(N(C(=O)c2cc(-c3cc4c(cc3C(=O)N3Cc5ccccc5C[C@H]3C)CN(C(=O)Cc3ccc(OCCN5CCOCC5)cc3F)CC4)n(C)c2C)c2ccccc2)cc(C#N)n1C ... Not fulfilled

From here, focus on the item given below.
Could you verify whether the entry `Cc1c(C(=O)N(c2ccccc2)c2cc(F)cc(C#N)c2)cc(-c2cc3c(cc2C(=O)N2Cc4ccccc4C[C@H]2C)CN(C(=O)Cc2ccc(OCCN4CCOCC4)cc2F)CC3)n1C` shows TR_FRET EKI BCLxL/WT selectivty of no less than 50?
Fulfilled

###

# TESTED SYSTEM: BCLXL WT (Homo sapiens (Human), UniProt Q07817)
# Sequence (Q07817 other isoform, or with tags, fused parts or gaps): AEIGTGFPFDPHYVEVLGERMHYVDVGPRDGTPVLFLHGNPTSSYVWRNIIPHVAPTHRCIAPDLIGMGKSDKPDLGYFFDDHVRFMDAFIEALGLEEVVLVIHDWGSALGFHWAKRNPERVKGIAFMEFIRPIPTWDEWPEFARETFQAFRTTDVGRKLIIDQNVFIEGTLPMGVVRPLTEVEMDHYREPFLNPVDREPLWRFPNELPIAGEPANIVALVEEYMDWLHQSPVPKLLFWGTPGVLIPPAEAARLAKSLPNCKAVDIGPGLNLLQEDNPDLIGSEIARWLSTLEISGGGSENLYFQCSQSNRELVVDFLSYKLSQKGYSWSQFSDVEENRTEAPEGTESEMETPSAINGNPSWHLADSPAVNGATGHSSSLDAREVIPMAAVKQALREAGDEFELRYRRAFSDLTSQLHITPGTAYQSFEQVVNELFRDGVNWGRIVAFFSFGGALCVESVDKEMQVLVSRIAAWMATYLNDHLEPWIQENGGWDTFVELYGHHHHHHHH
# METHOD NOTES: TR-FRET competitive binding assay, BCLXL WT
# TEST CONTEXT: ratio Ki BCLxL / Ki BCL2 WT
ENDPOINT NAME: TR_FRET EKI BCLxL/WT selectivty ratio
Answer with a number only.

Example entries begin here.
Cc1c(C(=O)N(c2ccccc2)c2cnn(C)c2)cc(-c2cc3c(cc2C(=O)N2Cc4ccccc4C[C@H]2C)CN(C(=O)Cc2ccc(OCCN(C)C)cc2)CC3)n1C ... 200.0
Cc1c(N(C(=O)c2cc(-c3cc4c(cc3C(=O)N3Cc5ccccc5C[C@H]3C)CN(C(=O)Cc3ccc(OCCC5CCOCC5)nc3)CC4)n(C)c2C)c2ccc(O)cc2)cc(C#N)n1C ... 19.1
Cc1c(N(C(=O)c2cc(-c3cc4c(cc3C(=O)N3Cc5ccccc5C[C@H]3CN3CC[C@@H](C)C3)CN(C(=O)Cc3ccc(OCCN5CCOCC5)cc3F)CC4)n(C)c2C)c2ccc(O)cc2)cc(C#N)n1C ... 50.9
COc1ccc(N(C(=O)c2cc(-c3cc4c(cc3C(=O)N3Cc5ccccc5C[C@H]3C)CN(C(=O)Cc3ccc(OCCN5CCOCC5)cc3)CC4)n(C)c2C)c2ccc(O)cc2)cc1C#N ... 27.9
Cc1c(N(C(=O)c2cc(-c3cc4c(cc3C(=O)N3Cc5ccccc5C[C@H]3C)CN(C(=O)Cc3ccc(OCCN(C)C5CC5)nc3)CC4)n(C)c2C)c2ccc(O)cc2)cc(C#N)n1C ... 35.7

TR_FRET EKI BCLxL/WT selectivty ratio measured on `Cc1c(N(C(=O)c2cc(-c3cc4c(cc3C(=O)N3Cc5ccccc5C[C@H]3CN3CCC[C@@H]3C)CN(C(=O)Cc3ccc(OCCN5CCOCC5)cc3F)CC4)n(C)c2C)c2ccc(O)cc2)cc(C#N)n1C` = 133.3

Lab note: `Cc1c(N(C(=O)c2cc(-c3cc4c(cc3C(=O)N3Cc5ccccc5C[C@H]3C)CN(C(=O)c3n[nH]c5ccccc35)CC4)n(C)c2C)c2ccc(O)cc2)cc(C#N)n1C` gave TR_FRET EKI BCLxL/WT selectivty ratio of 12.5

`Cc1c(N(C(=O)c2cc(-c3cc4c(cc3C(=O)N3Cc5ccccc5C[C@H]3CN3CCCCCC3)CN(C(=O)Cc3ccc(OCCN5CCOCC5)cc3F)CC4)n(C)c2C)c2ccc(O)cc2)cc(C#N)n1C` yielded TR_FRET EKI BCLxL/WT selectivty ratio of 37.5

The reported value for `Cc1c(N(C(=O)c2cc(-c3cc4c(cc3C(=O)N3Cc5ccccc5C[C@H]3CN3CCC(F)(F)CC3)CN(C(=O)Cc3ccc(OCCN5CCOCC5)cc3F)CC4)n(C)c2C)c2ccc(O)cc2)cc(C#N)n1C` in terms of TR_FRET EKI BCLxL/WT selectivty ratio is 15.3

Per the records, this molecule ( Cc1c(C(=O)N(c2ccc(O)cc2)c2cc(C#N)n(C(F)F)c2C)cc(-c2cc3c(cc2C(=O)N2Cc4ccccc4C[C@H]2CN2CCCCC2)CN(C(=O)Cc2ccc(OCCN4CCOC(C)C4)cc2F)CC3)n1C (single isomer, unassigned) ) has TR_FRET EKI BCLxL/WT selectivty ratio equal to 70.8

Kindly note the recorded TR_FRET EKI BCLxL/WT selectivty ratio for `Cc1c(N(C(=O)c2cc(-c3cc4c(cc3C(=O)N3Cc5ccccc5C[C@H]3CN3CCCCC3)CN(C(=O)Cc3c(F)cc(OCCN5CCOCC5)cc3F)CC4)n(C)c2C)c2ccc(O)cc2)cc(C#N)n1C` , which is 41.3

Form: molecule = `Cc1c(N(C(=O)c2cc(-c3cc4c(cc3C(=O)N3Cc5ccccc5C[C@H]3COCC3CC3)CN(C(=O)Cc3ccc(OCCN5CCOCC5)cc3F)CC4)n(C)c2C)c2ccc(O)cc2)cc(C#N)n1C` ; TR_FRET EKI BCLxL/WT selectivty ratio = 15.0

Recorded result, `Cc1c(N(C(=O)c2cc(-c3cc4c(cc3C(=O)N3Cc5ccccc5C[C@H]3C)CN(S(=O)(=O)Cc3ccccc3)CC4)n(C)c2C)c2ccc(O)cc2)cc(C#N)n1C` , TR_FRET EKI BCLxL/WT selectivty ratio: 58.9
